System: LU-65 (Non-Small Cell Lung Carcinoma);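 note: after 72 h of two-drug dosing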
Assay: Bliss excess, mean over the matrix (fraction); higher = more synergy
# Bliss excess annotations

MOLECULE: NC1(C(=O)N[C@@H](CCO)c2ccc(Cl)cc2)CCN(c2ncnc3[nH]ccc23)CC1 [Capivasertib] + CC(=O)c1c(C)c2cnc(Nc3ccc(N4CCNCC4)cn3)nc2n(C2CCCC2)c1=O [Palbociclib] (first compound max 10 µM, 7x7, partner max 10 µM)
Bliss excess: -0.151
--
MOLECULE: CS(=O)(=O)CCNCc1ccc(-c2ccc3ncnc(Nc4ccc(OCc5cccc(F)c5)c(Cl)c4)c3c2)o1 [Lapatinib] + Cn1cnc2c(F)c(Nc3ccc(Br)cc3Cl)c(C(=O)NOCCO)cc21 [Selumetinib] (first compound max 10 µM, 7x7, partner max 10 µM)
Bliss excess: -0.0113
--
MOLECULE: Cn1cnc2c(F)c(Nc3ccc(Br)cc3Cl)c(C(=O)NOCCO)cc21 [Selumetinib] + C[C@@H]1COCCN1C2=NC(=NC(=C2)C3(CC3)[S@](=N)(=O)C)C4=C5C=CNC5=NC=C4 [AZD6738] (first compound max 10 µM, 7x7, partner max 10 µM)
Bliss excess: -0.0244
--
MOLECULE: CN(C)CCCOc1ccc(-c2ccc3ncc4c(c3c2)n(C2CCOCC2)c(=O)n4C)cn1 [AZD0156] + CCN(CCO)CCCOc1ccc2c(Nc3cc(CC(=O)Nc4cccc(F)c4)[nH]n3)ncnc2c1 [AZD2811] (first compound max 1 µM, 7x7, partner max 1 µM)
Bliss excess: 0.0441
